Can you tell me self-cleavage for the items I'm about to list?
B1: HDV Ribozyme (parent)
chain: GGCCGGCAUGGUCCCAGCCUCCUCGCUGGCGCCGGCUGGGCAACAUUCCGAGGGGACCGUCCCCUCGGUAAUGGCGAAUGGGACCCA

# Variants of: B1
# METHOD_SUMMARY: self-cleavage, relative activity (ratio to wild type); higher = more cleavage; co-transcriptional

[ask] Consider the variant shown here: GGCCGGGAUGGUCCCAGCCUCCUCGCUGGCGCCGGCUGGGCAACAUUCCGAGGGGACCGUCCCCUCGGUAAUGGCGAAAGGGACCCA What is its recorded self-cleavage?
[reply] 0.123

[ask] Consider the variant shown here: GGCCGGCAUGGUCCCAGCCUCCUCGCUGGCGCCGGCUGGGCAACAUUCCGAGGGGACCGCCCCCUGGGUAAUGGCGAAUGGGACCCA What is its recorded self-cleavage?
[reply] 1.02

[ask] Consider the variant shown here: GGCCGGCAUGGUCCCAGCCUCCUCGUUGGCGCCGGCUGGGCAACAUUCCGAGGGGACCGUACCCUCGGUAAUGGCGAAUGGGACCCA What is its recorded self-cleavage?
[reply] 1.06

[ask] Consider the variant shown here: GGCCGGCAUGGUCCCAGCCUCCUCGCUGGCGCCGUCUGGGCAACAUUCCGAGGAGACCGUCCCCUCGGUAAUGGCGAAUGGGACCCA What is its recorded self-cleavage?
[reply] 0.499

[ask] Consider the variant shown here: GGCCGGCAUGGUCCCAGCCUCCUCGCUGGCGCCGGCUUGGCAACAUUGCGAGGGGACCGUCCCCUCGGUAAUGGCGAAUGGGACCCA What is its recorded self-cleavage?
[reply] 0.156

[ask] Consider the variant shown here: GGCCGGCAUGGUCCCAGCCUCCUCGCUGGCGCCGGCUGGGCAACAUUCCGAGGGGACCGUCCCCUCUGUAAUGGCGCAUGGGACCCA What is its recorded self-cleavage?
[reply] 0.373

[ask] Consider the variant shown here: GGCCGGCAUUGUCCCAGCCUCCUCGCUGGCGCCGGCUGGGCAACAUGCCGAGGGGACCGUCCCCUCGGUAAUGGCGAAUGGGACCCA What is its recorded self-cleavage?
[reply] 0.63

[ask] Consider the variant shown here: GGCCGGCAUGGUCCCAGCAUCCUCGCUGGCGCCGGCUGGACAACAUUCCGAGGGGACCGUCCCCUCGGUAAUGGCGAAUGGGACCCA What is its recorded self-cleavage?
[reply] 0.109

[ask] Consider the variant shown here: GGCCGGCAUGGUCCCAGCCUCCUCGCUGGCGCCGGCUGGGCAACAUUCCGAGGGGACCGUCCCCUCGGUAAUGGCGAAUGGGGCCCU What is its recorded self-cleavage?
[reply] 0.861

[ask] Consider the variant shown here: GGCCGGCAUGGUCCCAGCCUCCUCGCUGGAGCCGGCUGGGCAACAUUCCGAGGGGACCGUCCCCUCGGUAAUGGCGAAGGGGACCCA What is its recorded self-cleavage?
[reply] 0.256

[ask] Consider the variant shown here: GGCCGGCAUGGUCCCAGCCUCCUCACUGGCGCCGGCUGGGCAACAUUCCGAGGGGACCGCCCCCUCGGUAAUGGCGAAUGGGACCCA What is its recorded self-cleavage?
[reply] 0.138

[ask] Consider the variant shown here: GGCCGGCAUGGUCCCAGCCUCAUCGCUGGCGCCGGCUGGGCAACAUUCCGAGGGGACCGUCCCCUCGGUAAUCGCGAAUGGGACCCA What is its recorded self-cleavage?
[reply] 0.0482

[ask] Consider the variant shown here: GGCCGGCAUGGUCCCAGCCGCCUCGCUGGCGCCGGCUGGGCAACAUUCCGAGGGGACCGUCCCCUCGGUAAUGGCGUAUGGGACCCA What is its recorded self-cleavage?
[reply] 0.237

[ask] Consider the variant shown here: GGCCGGCAUGGUCCAAGCCUCCUCGCUGGCGCCGACUGGGCAACAUUCCGAGGGGACCGUCCCCUCGGUAAUGGCGAAUGGGACCCA What is its recorded self-cleavage?
[reply] 0.405
